List of Activity values.
- Assay explanation: Antioxidant activity assessed as superoxide anion radical scavenging activity at 160 uM measured as absorbance (t > infinity) recorded every min for 7 mins by nitroblue tetrazolium assay (reference value: 1.9 +/- 0.01)
- Format: physicochemical
Answer with a bare number; do not write a unit.

COc1cc(/C=C/C(=O)O[C@H]2CC[C@@]3(C)C(=CC[C@H]4[C@@H]5CC[C@H]([C@H](C)CCCC(C)C)[C@@]5(C)CC[C@@H]43)C2)ccc1O    1.82
COC(=O)/C=C/c1ccc(O)c(OC)c1    1.6

Next:
Which Activity is reported for this compound? "CC[C@H](CC[C@@H](C)[C@H]1CC[C@H]2[C@@H]3CC=C4C[C@@H](OC(=O)/C=C/c5ccc(O)c(OC)c5)CC[C@]4(C)[C@H]3CC[C@]12C)C(C)C"
1.16
